I'd be grateful if you could share measured pIC50 for these entries.
TARGET_DESC: CathepsinG, from human neutrophils (Homo sapiens, UniProt P08311)
Sequence (P08311 21-244): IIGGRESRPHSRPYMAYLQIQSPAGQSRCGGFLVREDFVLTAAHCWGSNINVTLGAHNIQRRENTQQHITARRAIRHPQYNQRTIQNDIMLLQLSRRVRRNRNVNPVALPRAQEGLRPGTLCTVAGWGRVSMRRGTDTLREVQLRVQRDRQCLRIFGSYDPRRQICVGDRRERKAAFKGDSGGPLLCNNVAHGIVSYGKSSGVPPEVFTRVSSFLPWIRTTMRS
TEST_METHOD_NOTES: Enzymatic assay, cathepsin G
COND: Cathepsin G IC50
Where a SMILES comes first, the peptide text is derived from it.
Note on pIC50: it is the negative log10 of concentration, concentration in mol/L.

Query: For the compound CC[C@H](C)[C@@H]1NC(=O)[C@@H]2CCCN2C(=O)[C@@H]2CCCN2C(=O)[C@H](CC(=O)O)NC(=O)[C@H](CO)NC(=O)[C@H](CCCCN)NC(=O)[C@H]([C@@H](C)O)NC(=O)[C@@H]2CSSC[C@H](NC1=O)C(=O)N[C@@H](CO)C(=O)N1CCC[C@@H]1C(=O)N1CCC[C@H]1C(=O)N[C@@H](Cc1cccc3ccccc13)C(=O)N2 [Ex. 62] (HELM PEPTIDE1{[O=C([C@H](Cc1cccc2ccccc12)N[*:1])[*:2]].C.T.K.S.D.P.P.I.C.S.[dP].P}$PEPTIDE1,PEPTIDE1,2:R3-10:R3|PEPTIDE1,PEPTIDE1,1:R1-13:R2$$$V2.0) , what pIC50 is on record?
Response: 7.16

Query: For the compound CC[C@H](C)[C@@H]1NC(=O)[C@H](C)NC(=O)[C@@H]2CCCN2C(=O)[C@H](CC(=O)O)NC(=O)[C@H](CO)NC(=O)[C@H](CCCCN)NC(=O)[C@H]([C@@H](C)O)NC(=O)[C@@H]2CSSC[C@H](NC1=O)C(=O)N[C@@H](CCCNC(=N)N)C(=O)N1CCC[C@@H]1C(=O)N1CCC[C@H]1C(=O)N[C@@H]([C@@H](C)CC)C(=O)N2 [Ex. 14] (HELM PEPTIDE1{I.C.T.K.S.D.P.A.I.C.R.[dP].P}$PEPTIDE1,PEPTIDE1,2:R3-10:R3|PEPTIDE1,PEPTIDE1,1:R1-13:R2$$$V2.0) , what pIC50 is on record?
Response: 7.28

Query: For the compound C[C@@H](O)[C@@H]1NC(=O)[C@@H]2CSSC[C@H](NC(=O)[C@H](CC3CCCCC3)NC(=O)[C@@H]3CCCN3C(=O)[C@@H]3CCCN3C(=O)[C@H](CC(=O)O)NC(=O)[C@H](CO)NC(=O)[C@H](CCCCN)NC1=O)C(=O)N[C@@H](Cc1ccc(O)cc1)C(=O)N1CCC[C@@H]1C(=O)N1CCC[C@H]1C(=O)N[C@@H](C1CCCCC1)C(=O)N2 [Ex. 66] (HELM PEPTIDE1{[O=C([C@@H](N[*:1])C1CCCCC1)[*:2]].C.T.K.S.D.P.P.[Cha].C.Y.[dP].P}$PEPTIDE1,PEPTIDE1,2:R3-10:R3|PEPTIDE1,PEPTIDE1,1:R1-13:R2$$$V2.0) , what pIC50 is on record?
Response: 7.32
